Would you kindly list Kd for each of these binders?
# Tested On: T1, extracellular domain of human BCMA (human, UniProt Q02223 1-54)
# T1 construct: amine-linked to Octet AR2G tips; also called hsBCMA; BCMA (human)
# T1 sequence: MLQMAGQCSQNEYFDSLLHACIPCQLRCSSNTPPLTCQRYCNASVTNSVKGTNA
# Assay Remarks: Octet BLI; Fab 200 nM
Dear colleague, please return just the value in nM, with no unit written.

INPUT: Which Kd value belongs to AB200-R1a-Fab_Vk13 (Fab, V domains shown) VH: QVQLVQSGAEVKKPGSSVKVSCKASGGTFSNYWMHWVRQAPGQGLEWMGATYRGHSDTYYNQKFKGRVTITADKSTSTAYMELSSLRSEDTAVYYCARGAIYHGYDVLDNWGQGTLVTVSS VL: DIQMTQSPSSLSASVGDRVTITCSASNDISNYLNWYQQKPGKAPKLLIYYSSDLHSGVPSRFSGSGSGTDFTLTISSLQPEDFATYYCQQYRKLPWTFGQGTKLEIKR ?
OUTPUT: 7.14

INPUT: Which Kd value belongs to AB200-R1a-Fab_Vk19 (Fab, V domains shown) VH: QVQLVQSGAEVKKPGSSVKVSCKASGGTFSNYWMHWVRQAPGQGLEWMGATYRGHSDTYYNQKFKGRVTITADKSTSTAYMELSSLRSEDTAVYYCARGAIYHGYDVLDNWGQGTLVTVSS VL: DIQMTQSPSSLSASVGDRVTITCSASNDISNYINWYQQKPGKAPKLLIYYTSNLHSGVPSRFSGSGSGTDFTLTISSLQPEDFATYYCQQFRKLPWTFGQGTKLEIKR ?
OUTPUT: 2.07

INPUT: Which Kd value belongs to AB200-R1a-Fab_Vk6 (Fab, V domains shown, also called AB200 kappa variant 6; AB200_Vk6_Fab) VH: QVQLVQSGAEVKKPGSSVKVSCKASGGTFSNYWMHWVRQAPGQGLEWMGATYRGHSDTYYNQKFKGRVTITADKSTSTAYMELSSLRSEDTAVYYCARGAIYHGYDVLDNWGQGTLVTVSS VL: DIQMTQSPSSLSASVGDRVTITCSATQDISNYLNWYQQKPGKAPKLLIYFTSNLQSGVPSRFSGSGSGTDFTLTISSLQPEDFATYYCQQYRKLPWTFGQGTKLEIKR ?
OUTPUT: 1.11
